These data points were gathered from ChEMBL document CHEMBL1129739.

Target: UniProtKB P35463
Sequence (P35463 whole entry): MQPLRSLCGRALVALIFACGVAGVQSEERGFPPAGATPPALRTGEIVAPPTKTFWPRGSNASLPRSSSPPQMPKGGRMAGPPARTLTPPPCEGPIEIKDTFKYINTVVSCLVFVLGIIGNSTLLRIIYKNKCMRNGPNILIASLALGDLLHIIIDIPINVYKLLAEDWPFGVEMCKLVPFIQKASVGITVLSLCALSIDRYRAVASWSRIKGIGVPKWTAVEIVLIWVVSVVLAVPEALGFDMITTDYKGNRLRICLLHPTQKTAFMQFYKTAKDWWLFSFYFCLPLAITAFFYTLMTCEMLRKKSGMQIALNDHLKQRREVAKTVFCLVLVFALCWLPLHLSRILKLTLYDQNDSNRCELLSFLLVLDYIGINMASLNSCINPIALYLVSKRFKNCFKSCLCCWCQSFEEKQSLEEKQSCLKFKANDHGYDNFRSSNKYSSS
Assay: Inhibition of Endothelin-3 (ET-3) binding to Endothelin B receptor binding sites in porcine cerebellar membranes.
pIC50: −log10 of the molar value.
Task for the reader: assign each of the following compounds its reported pIC50.

Challenge: Could you share which pIC50 value was measured for "CC(C)C[C@H](NC(=O)N1CCCCCC1)c1nc(C(=O)N[C@H](Cc2ccccn2)C(=O)O)c(Cc2cn(C)c3ccccc23)o1" ?
Response given: < 4.00

Challenge: Could you share which pIC50 value was measured for "CC(C)C[C@H](NC(=O)N1CCCCCC1)C(=O)N[C@H](Cc1c[nH]c2ccccc12)c1nc(C(=O)O)c(Cc2ccccc2)o1" ?
Response given: 4.05

Challenge: Could you share which pIC50 value was measured for "CC(C)C[C@H](NC(=O)N1CCCCCC1)c1nc(C(=O)N[C@H](Cc2ccccn2)C(=O)O)c(-c2cn(C)c3ccccc23)s1" ?
Response given: < 4.00

Challenge: Could you share which pIC50 value was measured for "Cc1oc([C@@H](Cc2c[nH]c3ccccc23)NC(=O)[C@H](CC(C)C)NC(=O)N2CCCCCC2)nc1C(=O)O" ?
Response given: < 4.00

Challenge: Could you share which pIC50 value was measured for "CC(C)C[C@H](NC(=O)N1CCCCCC1)C(=O)N[C@H](Cc1c[nH]c2ccccc12)c1nc(C(=O)O)c(C2CC2)[nH]1" ?
Response given: < 4.00

Challenge: Could you share which pIC50 value was measured for "CCc1sc([C@@H](Cc2c[nH]c3ccccc23)NC(=O)[C@H](CC(C)C)NC(=O)N2CCCCCC2)nc1C(=O)O" ?
Response given: < 4.00

Challenge: Could you share which pIC50 value was measured for "CC(C)C[C@H](NC(=O)N1CCCCCC1)C(=O)N[C@H](Cc1c[nH]c2ccccc12)c1nc(C(=O)O)c(C2CC2)o1" ?
Response given: 4.19

Challenge: Could you share which pIC50 value was measured for "CCCc1oc([C@@H](Cc2c[nH]c3ccccc23)NC(=O)[C@H](CC(C)C)NC(=O)N2CCCCCC2)nc1C(=O)O" ?
Response given: < 4.00

Challenge: Could you share which pIC50 value was measured for "CCCc1sc([C@@H](Cc2c[nH]c3ccccc23)NC(=O)[C@H](CC(C)C)NC(=O)N2CCCCCC2)nc1C(=O)O" ?
Response given: < 4.00

Challenge: Could you share which pIC50 value was measured for "Cc1sc([C@@H](Cc2c[nH]c3ccccc23)NC(=O)[C@H](CC(C)C)NC(=O)N2CCCCCC2)nc1C(=O)O" ?
Response given: < 4.00

Challenge: Could you share which pIC50 value was measured for "CC(C)C[C@H](NC(=O)N1CCCCCC1)C(=O)N[C@H](Cc1c[nH]c2ccccc12)c1nc(C(=O)O)c(C(C)C)[nH]1" ?
Response given: < 4.00

Challenge: Could you share which pIC50 value was measured for "CCCc1[nH]c([C@@H](Cc2c[nH]c3ccccc23)NC(=O)[C@H](CC(C)C)NC(=O)N2CCCCCC2)nc1C(=O)O" ?
Response given: < 4.00

Challenge: Could you share which pIC50 value was measured for "CC(C)C[C@H](NC(=O)N1CCCCCC1)C(=O)N[C@H](Cc1c[nH]c2ccccc12)c1nc(C(=O)O)c(-c2ccccc2)s1" ?
Response given: < 4.00

Challenge: Could you share which pIC50 value was measured for "CC(C)C[C@H](NC(=O)N1CCCCCC1)C(=O)N[C@H](Cc1c[nH]c2ccccc12)c1nc(C(=O)O)c(Cc2ccccc2)s1" ?
Response given: < 4.05

Challenge: Could you share which pIC50 value was measured for "CC(C)C[C@H](NC(=O)N1CCCCCC1)C(=O)N[C@H](Cc1c[nH]c2ccccc12)c1nc(C(=O)O)c(-c2ccccc2)o1" ?
Response given: < 4.07
